- testedOn: acetylcholinesterase (AChE) (Homo sapiens)
- assayName: biochemical
- studyConditions: Ellman method, pH 7.7, 37 °C, triplicate, ± SEM; read-out: AchE IC50
Listed compounds paired with reported log10 of IC50
Short version: log10 scale, IC50, nM.

// query Quickly give me recorded log10 of IC50 for O=[N+]([O-])c1cccc(S(=O)(=O)NNc2nc(-c3ccc(Cl)cc3)cs2)c1 [analog 14]
// result 3.08

---

A collection of compounds and their measured pIC50
- testedOn: acetylcholinesterase (AChE) (Homo sapiens, UniProt P22303)
- Sequence (P22303 32-614, species assumed): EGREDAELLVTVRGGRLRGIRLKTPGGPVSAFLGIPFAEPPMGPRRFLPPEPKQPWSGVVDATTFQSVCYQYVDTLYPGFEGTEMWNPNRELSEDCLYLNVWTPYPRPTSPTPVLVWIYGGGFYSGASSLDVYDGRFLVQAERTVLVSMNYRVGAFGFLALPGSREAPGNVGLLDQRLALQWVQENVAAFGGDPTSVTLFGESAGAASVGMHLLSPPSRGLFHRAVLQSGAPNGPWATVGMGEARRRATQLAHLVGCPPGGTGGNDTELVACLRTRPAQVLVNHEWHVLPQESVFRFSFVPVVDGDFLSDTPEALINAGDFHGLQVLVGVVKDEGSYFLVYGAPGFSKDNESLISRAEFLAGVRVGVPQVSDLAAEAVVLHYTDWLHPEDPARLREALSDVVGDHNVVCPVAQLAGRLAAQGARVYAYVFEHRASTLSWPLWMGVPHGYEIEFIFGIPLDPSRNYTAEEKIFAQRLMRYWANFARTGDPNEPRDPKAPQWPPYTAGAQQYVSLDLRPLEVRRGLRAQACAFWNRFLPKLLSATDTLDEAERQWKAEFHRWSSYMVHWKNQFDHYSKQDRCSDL
- assayName: biochemical
pIC50 here is simply -log10 of the concentration when that concentration is written in mol/L.

Take a look at these entries with their results.
{"compound": "O=[N+]([O-])c1ccc(S(=O)(=O)NNc2nc(-c3cccc([N+](=O)[O-])c3)cs2)cc1 [analog 20]", "pIC50": 5.46}
{"compound": "O=[N+]([O-])c1cccc(-c2csc(NNS(=O)(=O)c3cccc([N+](=O)[O-])c3)n2)c1 [analog 3]", "pIC50": 5.54}
{"compound": "Cc1ccc([N+](=O)[O-])cc1S(=O)(=O)NNc1nc(-c2cccc([N+](=O)[O-])c2)cs1 [analog 4]", "pIC50": 5.49}

Now turn to the next compound.
// query Output pIC50 of O=[N+]([O-])c1ccc([N+](=O)[O-])c(S(=O)(=O)NNc2nc(-c3ccc(-c4ccccc4)cc3)cs2)c1 [analog 19]
// result 5.51
